Where these numbers come from: the PolyMetriX glass transition set

Quantity: glass transition temperature (°C)
Response body: numeric value in °C, unit text excluded.

Below: 5 molecules and their reported glass transition temperature.
>>> print(df.to_string())
                                   molecule                      quantity  numeric_readout
0  *CCCCOC(=O)OCC1CCC(COC(=O)O*)CC1 (repeat unit)  glass transition temperature            13.00
1  *C(=O)c1ccc2c(c1)C(=O)N(c1c(C)cc(-c3cc(C)c(N4C(=O)c5ccc(*)cc5C4=O)c(C)c3)cc1C)C2=O (repeat unit)  glass transition temperature           310.00
2  *CC(*)(C)C(=O)OCc1ccc(Cl)cc1Cl (repeat unit)  glass transition temperature            19.40
3  *OC(COC(=O)c1ccc(-c2ccc(C(*)=O)cc2)cc1)COc1ccc(/N=N/c2ccc(C#N)cc2)cc1 (repeat unit)  glass transition temperature           141.00
4  *Oc1ccc(C(=O)Nc2cc(NC(=O)c3ccc(*)cc3)cc(-c3nc4ccccc4[nH]3)c2)cc1 (repeat unit)  glass transition temperature           335.00

glass transition temperature for *C(=O)c1ccc2c(c1)C(=O)N(c1c(C)cc(C)c(N3C(=O)c4ccc(*)cc4C3=O)c1C)C2=O (repeat unit) ?
404.00

If you can, please state the reported glass transition temperature value of *Oc1ccc(C2(c3ccc(OC(=O)c4ccc(C(*)=O)cc4)cc3)CCc3ccccc32)cc1 (repeat unit) .
312.00

What value of glass transition temperature has been reported for the following molecule? *Oc1ccc(Oc2ccc(/C=N/c3ccc(Oc4ccc(/N=C/c5ccc(*)cc5)cc4)cc3)cc2)cc1 (repeat unit)
120.00

---

glass transition temperature values, listed per item
All answers are understood in °C, so give the number only.

Solved cases below.
Compound	glass transition temperature [°C]
*CC(*)c1cc(C)cc(C)c1 (repeat unit)	112.00
*Oc1ccc(S(=O)(=O)c2ccc(Oc3ccc(NC(=O)c4ccc(Oc5ccc(C(C)(C)c6cccc(C(C)(C)c7ccc(Oc8ccc(C(=O)Nc9ccc(*)cc9)cc8)cc7)c6)cc5)cc4)cc3)cc2)cc1 (repeat unit)	167.00
*C(=O)Nc1ccc(C(c2ccc(NC(=O)c3ccc(N4C(=O)c5ccc(*)cc5C4=O)cc3C)cc2)(C(F)(F)F)C(F)(F)F)cc1 (repeat unit)	355.00
*Oc1ccc(Oc2ccc(/C=N/CC/N=C/c3ccc(*)cc3)cc2)cc1 (repeat unit)	101.00
*Nc1ccc(NC(=O)c2ccc(NC(=O)CCCCCCCCCCCCC(=O)Nc3ccc(C(*)=O)cc3)cc2)cc1C(=O)OCCCCCCCCCCCC (repeat unit)	199.50
*OC(C)COC(=O)c1cccc(C(*)=O)c1 (repeat unit)	77.00

Moving on to the next compound.
Fill in: glass transition temperature of *CCCCCCOC(=O)OCCCOC(=O)OCCCCCCOc1ccc(Oc2ccc(O*)cc2)cc1 (repeat unit) is ___
-6.00

---

# note: exactly 200 °C is not below, so it is 0.0; use 1.0 for glass transition temperature strictly under it

Problem: For the compound *CC(*)(C)C(=O)OCCCCCCCCCCOc1ccc(/N=N/c2ccc(C3OCC4(CO3)CC3C=CC4C3)cc2)cc1 (repeat unit) , is glass transition temperature under 200 °C?
1.0

---

Attribute: glass transition temperature
Give a bare numeral; the unit °C is implied.

In [3]: df
Out[3]:
                                   compound  numeric_readout
0  *Oc1cccc(Sc2ccc(Oc3ccc4c(c3)C(=O)N(c3ccc(Oc5ccc(N6C(=O)c7ccc(*)cc7C6=O)cc5)cc3)C4=O)cc2)c1 (repeat unit)           212.00
1  *Oc1cccc(S(=O)(=O)c2ccc(Oc3ccc4c(c3)C(=O)N(c3cccc(N5C(=O)c6ccc(*)cc6C5=O)c3)C4=O)cc2)c1 (repeat unit)           265.00

For the next question, use this compound.
Which glass transition temperature reading was recorded for the compound *Sc1ccc2c(c1)C(=O)N(c1ccc(Oc3ccc(Oc4ccc(N5C(=O)c6cccc(*)c6C5=O)cc4)cc3)cc1)C2=O (repeat unit) ?
238.00
